# TARGET_UNDER_TEST: T1, human SIRPβ isoform 1 (human, UniProt O00241 30-148)
# T1 construct: also called SIRPb; sirpb1
# EXPERIMENTAL_PROTOCOL: SPR, Langmuir fit
Just a reminder that ties go to F: only koff strictly below 0.0004 s⁻¹ counts as T.

1) S55 (scFv, V domains shown, also called clone 55) VH: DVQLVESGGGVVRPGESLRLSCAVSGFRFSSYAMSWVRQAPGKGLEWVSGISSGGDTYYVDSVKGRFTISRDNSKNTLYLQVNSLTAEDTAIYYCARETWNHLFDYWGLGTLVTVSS VL: ALTQPASVSANLGETVEITCSGGDSSSHYYGWYQQKSPGSAPVTVIYSDDERPSDIPSRFSGSASGSTATLTITGVRVEDEAIYYCGAYDGSTYANTFGAGTTLTVL : T
2) S164 (scFv, V domains shown) VH: DVQLVESGGGLVRPGESLRLSCAASGFTFTNYAVTWVRQAPGEGLEWVSLISVTGTTYYADSVKGRFTISRDNSKSTLYLQMNGLRAEDTAVYYCAKVTWKNVFDYWGLGTLVTVSS VL: EIVLTQSPGTLSVSPGERATFSCRASQTVGSKLAWYQQKPGQAPRLLIYDANTRATGIPARFSGSRSGTEFTLTISSLQSEDFAVYYCQQHTDWPPYTFGGGTKVEIK : F
3) S201 (scFv, V domains shown) VH: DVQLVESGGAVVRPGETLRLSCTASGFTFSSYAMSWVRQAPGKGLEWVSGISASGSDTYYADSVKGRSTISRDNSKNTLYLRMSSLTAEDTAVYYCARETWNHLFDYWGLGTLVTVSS VL: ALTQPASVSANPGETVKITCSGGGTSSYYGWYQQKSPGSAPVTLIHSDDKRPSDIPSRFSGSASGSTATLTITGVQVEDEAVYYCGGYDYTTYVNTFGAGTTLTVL : F
4) S26 (scFv, V domains shown, also called clone 26) VH: DVQLVESGGGVVRPGESLRLSCAASGFTFSTYAMSWVRQAPGKGLEWVSGISASGSGTYYGDSVKGRFTMSRDNSKNTLYLQMNSLTAEDTAVYYCARETWNHLFDYWGLGTLVTVSS VL: ALTQPASVSANLGGTVEITCSGGSSSYYGWYQQKSPGSAPVTVIYSDNQRPSDIPSRFSGSASDSTATLTITGVQVEDEAIYYCGGYDSSTYANTFGAGTTLTVL : T
5) S189 (scFv, V domains shown) VH: DVQLVESGGGVVRPGESLRLSCAASGFTFSSSDMNWVRQAPGEGLEWVSLISGSGEITYYADSVKGRFTISRDNSKNTLYLQMNSLRAEDTAIYYCAKENNMYRFFDYWGLGTLVTVSS VL: ETVLTQSPGTLSLSPGERATLSCRASQSVYTYLAWYQQKPGQPPRLLIHAARNRAAGIPDRFSGSGSGTEFTLTISSLQSEDFAVYYCQQYYDRPPLTFGGGTKVEIK : F
6) S71 (scFv, V domains shown, also called clone 71) VH: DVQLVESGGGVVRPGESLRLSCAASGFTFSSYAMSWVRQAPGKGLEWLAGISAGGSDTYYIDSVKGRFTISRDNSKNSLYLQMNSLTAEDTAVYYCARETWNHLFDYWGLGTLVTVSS VL: ALTQPASVSANPGETVKITCSGGGYYSTYYGWYQQKSPGSAPVTVIHSDDKRPSDIPSRFSGSASGSAATLTITGVRVEDEAVYYCAGYDARTYINTFGAGTTLTVL : T
7) S66 (scFv, V domains shown, also called clone 66; scFv-Fc form of AB66) VH: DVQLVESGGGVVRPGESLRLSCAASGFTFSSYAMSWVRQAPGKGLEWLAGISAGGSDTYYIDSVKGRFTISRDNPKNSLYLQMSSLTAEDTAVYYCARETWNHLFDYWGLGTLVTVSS VL: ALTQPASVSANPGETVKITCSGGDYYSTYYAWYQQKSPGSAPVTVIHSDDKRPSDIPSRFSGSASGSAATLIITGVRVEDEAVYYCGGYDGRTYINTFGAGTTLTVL : T
8) S198 (scFv, V domains shown) VH: DVQLVESGGGVVRPGESLRLSCAASGFSFSSHAMNWVRQAPGEGLEWVSRINSGGGGTDYAESVKGRFTISRDNSENTLYLQMNSLRAEDTAVYYCAKQYDWNGFFDYWGLGALVTVSS VL: ETVLTQSPATLSVSPGERATLSCRASQTVGSKLAWHQQKPGQAPRLLIYDATNRATGIPDRFSGSGSGTDFTLTISSLQTEDSAVYYCQQYYYWPPYRFGGGTKVEIK : T
9) S161 (scFv, V domains shown, scFv-Fc format (VL-linker-VH on human IgG1 Fc)) VH: DVQLVESGGGVVRPGESLRLSCAASGFTFSNFAMTWVRQAPGKGPEWVSLVSVTATTYYADSVKGRFTISRDNSKSTLYLQMNSLRAEDTAVYYCAKITWNNLFDYWGLGTLVTVSS VL: EIVLTQSPGTLSLSPGERATLSCRASQTVGSKLAWYQQKPGQAPRLLIYDSSSRASGIPDRFSGSGSGTDFTLTISSLQSEDSAVYYCQQHNDWPPYTFGGGTKVEIK : F
10) S25 (scFv, V domains shown, also called clone 25; scFv-Fc form of AB25) VH: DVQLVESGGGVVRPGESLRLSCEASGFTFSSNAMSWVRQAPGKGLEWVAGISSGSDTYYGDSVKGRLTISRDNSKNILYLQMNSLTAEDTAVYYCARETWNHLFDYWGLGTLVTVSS VL: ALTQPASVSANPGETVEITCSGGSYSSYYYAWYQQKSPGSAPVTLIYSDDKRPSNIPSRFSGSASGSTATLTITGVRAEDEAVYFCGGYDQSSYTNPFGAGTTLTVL : T
